Molecular target: UniProt P03956
Sequence (whole entry): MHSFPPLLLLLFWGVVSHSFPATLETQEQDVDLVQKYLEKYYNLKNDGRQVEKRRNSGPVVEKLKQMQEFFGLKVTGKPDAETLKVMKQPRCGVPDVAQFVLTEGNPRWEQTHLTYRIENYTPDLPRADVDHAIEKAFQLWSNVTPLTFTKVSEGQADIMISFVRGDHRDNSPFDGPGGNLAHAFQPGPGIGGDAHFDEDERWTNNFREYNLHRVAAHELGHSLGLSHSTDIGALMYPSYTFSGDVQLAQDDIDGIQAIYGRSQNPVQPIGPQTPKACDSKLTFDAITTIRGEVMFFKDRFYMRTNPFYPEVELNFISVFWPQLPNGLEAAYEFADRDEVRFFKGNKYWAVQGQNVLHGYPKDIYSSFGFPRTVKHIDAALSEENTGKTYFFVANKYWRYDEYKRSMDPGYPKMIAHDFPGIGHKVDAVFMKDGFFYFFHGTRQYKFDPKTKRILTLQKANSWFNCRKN
Assay: Inhibition of Matrix metalloprotease-1 at 1 uM
measured_parameter: inhibition (%)

// known answers, use as guide
CCCCOc1ccc(S(=O)(=O)N(Cc2ccccc2)c2c(C)cc(C)cc2C(=O)NO)cc1 :: 33
Cc1cc(Br)cc(C(=O)NO)c1N(C)S(=O)(=O)c1ccc(Oc2ccc(C(C)(C)C)cc2)cc1 :: 25

a = Cc1cc(C)c(N(Cc2ccccc2)S(=O)(=O)c2ccc(OCc3ccccc3)cc2)c(C(=O)NO)c1
b = CN(c1ccccc1C(=O)NO)S(=O)(=O)c1ccc(Oc2ccncc2)cc1
Task: I would appreciate it if you could say which entry, a or b , has the lower inhibition value. In your reply, give the label of the chosen option.
Result: a

Data origin, for the record: ChEMBL document CHEMBL1133916
